Recorded log10 of IC50 by entry
# target under test: Nonstructural protein 3 (Zika virus, UniProt A0A024AXB9)
# Sequence (A0A024AXB9 whole entry): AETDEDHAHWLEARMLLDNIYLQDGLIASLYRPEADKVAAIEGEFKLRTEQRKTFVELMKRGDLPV
# experimental details: Functional biochemical assay to identify treatments for viral infectious disease that targets Zika NS2B-NS3 protease. Utilizing a direct enzyme activity measurement method, reading the fluorescence intensity is used to characterize the relative potency of inhibitors as IC50.
# Design: species or system PRVABC59
Please be aware that the numbers have been log10-transformed from IC50 in µM.

- smiles string: "NCc1cccc(NC(=O)[C@@H](NC(=O)OCc2ccccc2)c2ccc(-c3ccc4scnc4c3)cc2)c1"
  target under test: "Nonstructural protein 3 (Zika virus, UniProt A0A024AXB9)"
  log10 of IC50: 1.09
- smiles string: "CCCN1C(=O)[C@](C#N)(Nc2ccc3c(c2)CNC3)c2ccccc21"
  target under test: "Nonstructural protein 3 (Zika virus, UniProt A0A024AXB9)"
  log10 of IC50: 1.38

Report log10 of IC50 for `O=C(Nc1ccc2c(c1)CNC2)c1cc(Cl)cc2[nH]c(CCc3cccnc3)nc12` tested on Nonstructural protein 3 (Zika virus, UniProt A0A024AXB9).
-0.84

# repeat for `COc1ccc(-c2cccc([C@H](NC(=O)OCc3ccccc3)C(=O)Nc3cccc(CN)c3)c2)c(C#N)c1`
1.05

# repeat for `NCc1cccc(NC(=O)c2cccn3cc(CN4CCCC4)nc23)c1`
1.21

# repeat for `O=C(Nc1ccc2c(c1)CNC2)c1ccc2c(c1)C1(CC1)C(=O)N2`
0.25

# repeat for `c1ccc2c(CN3CCC(c4ccn[nH]4)CC3)c[nH]c2c1`
1.82

# repeat for `O=C(Nc1ccc2c(c1)CN[C@H]2CCO)c1cc(F)cc2[nH]ncc12`
-0.94

# repeat for `COc1ncccc1-c1ccc([C@@H](NC(=O)OCc2ccccc2)C(=O)Nc2cccc(CN)c2)cc1`
1.25
